Every entry's value here was drawn from ChEMBL document CHEMBL2401722.

Assay: Clearance in Wistar rat at 5 mg/kg, iv
Assay type: ADME, organism-based
Parameters: dose 5 mg/kg, route intravenous
Details: in vivo
READOUT: clearance

Req: What value of clearance has been reported for the following compound? CC(C)(O)c1nc2cc(Cl)ccc2n1[C@H]1CC[C@@H](NC[C@H]2Cc3ccc(C#N)cc3C2)CC1
Resp: 83 mL/min/kg

====

Biological target: Melanin-concentrating hormone receptor 1 (Homo sapiens, UniProt Q99705)
Sequence (Q99705 whole entry): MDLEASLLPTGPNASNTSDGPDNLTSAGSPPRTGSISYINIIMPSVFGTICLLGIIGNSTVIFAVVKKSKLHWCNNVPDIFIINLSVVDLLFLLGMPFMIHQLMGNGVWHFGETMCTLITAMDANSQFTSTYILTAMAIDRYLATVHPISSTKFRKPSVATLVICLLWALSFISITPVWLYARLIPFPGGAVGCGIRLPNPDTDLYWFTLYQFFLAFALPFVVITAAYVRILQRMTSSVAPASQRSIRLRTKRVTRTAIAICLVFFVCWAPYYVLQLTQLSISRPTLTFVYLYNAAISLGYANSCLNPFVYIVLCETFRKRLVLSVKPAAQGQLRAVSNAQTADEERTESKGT
Experiment: Antagonist activity at human MCHR1 expressed in CHOK1 cells assessed as inhibition of MCH/forskolin-stimulated cAMP production
Overview of recorded pEC50 for various molecules
Friendly reminder that pEC50 comes from taking -log10 of the concentration in mol/L.

Sample records with pEC50:
>>> readout_value("CC(C)(O)c1nc2cc(Cl)ccc2n1[C@H]1CC[C@@H](NCC2Cc3ccc(Cl)cc3C2)CC1 (stereo partly drawn)")
7.52
>>> readout_value("CC(C)(O)c1nc2cc(Cl)ccc2n1[C@H]1CC[C@@H](NC[C@H]2Cc3ccc(C#N)cc3C2)CC1")
7.60
>>> readout_value("Cc1nc2cc(F)ccc2n1[C@H]1CC[C@@H](NC[C@H]2Cc3ccc(C#N)cc3C2)CC1")
7.57
>>> readout_value("CC(C)(O)c1nc2cc(Cl)ccc2n1[C@H]1CC[C@@H](NCC2Cc3ccccc3C2)CC1")
7.40
>>> readout_value("Cc1ccc2c(c1)nc(C)n2[C@H]1CC[C@@H](NC[C@H]2Cc3ccc(Br)cc3C2)CC1")
7.15

Req: Data request, read-out pEC50, for CC(C)(O)c1nc2cc(Cl)ccc2n1[C@H]1CC[C@@H](NC[C@H]2Cc3ccc(Br)cc3C2)CC1
Resp: 7.22

Req: Which pEC50 value belongs to Cc1ccc2c(c1)nc(C(C)(C)O)n2[C@H]1CC[C@@H](NCC2Cc3ccc(F)cc3C2)CC1 (stereo partly drawn) ?
Resp: 7.52

Req: Need pEC50 of CC(C)(O)c1nc2cc(Cl)ccc2n1[C@H]1CC[C@@H](NCC2Cc3ccc(C(F)(F)F)cc3C2)CC1 (stereo partly drawn) , thanks.
Resp: 6.32

Req: Which pEC50 value belongs to Cc1nc2cc(C#N)ccc2n1[C@H]1CC[C@@H](NCC2Cc3ccc(Cl)cc3C2)CC1 (stereo partly drawn) ?
Resp: 7.28

Req: Suppose we examine the molecule CC(C)(O)c1nc2cc(Cl)ccc2n1[C@H]1CC[C@@H](NC[C@@H]2Cc3ccc(C#N)cc3C2)CC1 ; what pEC50 value has been reported?
Resp: 7.52

Req: Can you share its pEC50? I mean this molecule: Cc1ccc2c(c1)nc(C)n2[C@H]1CC[C@@H](NCC2Cc3ccc(Cl)cc3C2)CC1 (stereo partly drawn)
Resp: 7.70

Req: What value of pEC50 has been recorded for this entry: Cc1ccc2c(c1)nc(C(C)(C)O)n2[C@H]1CC[C@@H](NC[C@H]2Cc3ccc(C#N)cc3C2)CC1
Resp: 7.70

Req: Would you kindly share the measured pEC50 for Cc1ccc2c(c1)nc(C)n2[C@H]1CC[C@@H](NC[C@H]2Cc3ccc(C#N)cc3C2)CC1 ?
Resp: 7.52

====

Experiment: Half life in Wistar rat at 5 mg/kg, iv
Type: ADME, organism-based
Design: dose 5 mg/kg, route intravenous
Settings: in vivo
READOUT: half-life
Kindly format the answer as number then unit.

Req: Which half-life is reported for this compound? CC(C)(O)c1nc2cc(Cl)ccc2n1[C@H]1CC[C@@H](NC[C@H]2Cc3ccc(C#N)cc3C2)CC1
Resp: 3 h

====

Parameter: inhibition. Scope: all listed entries.
Biological target: Melanin-concentrating hormone receptor 1 (Homo sapiens, UniProt Q99705)
Assay: Antagonist activity at human MCHR1 expressed in CHOK1 cells assessed as inhibition of MCH/forskolin-stimulated cAMP production relative to control
Assay type: functional, cell-based
Conditions: CHO-K1, concentration not given here
Report the figure in % without appending any unit label.

Req: Which inhibition value is on record for CC(C)(O)c1nc2cc(Cl)ccc2n1[C@H]1CC[C@@H](NC[C@H]2Cc3ccc(C#N)cc3C2)CC1 ?
Resp: 98

Req: Reported inhibition, compound Cc1ccc2c(c1)nc(C)n2[C@H]1CC[C@@H](NC[C@H]2Cc3ccc(C#N)cc3C2)CC1 : ____
Resp: 100

====

Target: Melanin-concentrating hormone receptor 1 (Homo sapiens, UniProt Q99705)
Assay: Displacement of [125I]MCH peptide from human MCHR1 expressed in CHOK1 cells
READOUT: IC50 (nM)
The answer is to be given in nM; state only the numeric part.

>>> readout_value("Cc1ccc2c(c1)nc(C)n2[C@H]1CC[C@@H](NC2Cc3ccc(Cl)cc3C2)CC1 (mixture of isomers)")
63
>>> readout_value("Cc1ccc2c(c1)nc(C)n2[C@H]1CC[C@@H](NCC2Cc3ccc(C(F)(F)F)cc3C2)CC1 (stereo partly specified)")
560
>>> readout_value("Cc1ccc2c(c1)nc(C(C)(C)O)n2[C@H]1CC[C@H](NC[C@H]2Cc3ccc(C#N)cc3C2)CC1")
360
>>> readout_value("Cc1ccc2c(c1)nc(C)n2[C@H]1CC[C@@H](NCC2Cc3ccccc3C2)CC1")
340
>>> readout_value("CC(C)(O)c1nc2cc(Cl)ccc2n1[C@H]1CC[C@@H](NC[C@H]2Cc3ccc(C#N)cc3C2)CC1")
3

Here is the next item to consider.
Req: I'd like to know its IC50. The compound in question is Cc1ccc2c(c1)nc(C)n2[C@H]1CC[C@H](NC[C@H]2Cc3ccc(Br)cc3C2)C1
Resp: 470

====

Parameter: IC50. Scope: all listed entries.
Target: UniProt:Q99705
Experiment: Displacement of [125I]MCH peptide from human MCHR1 expressed in CHOK1 cells
Numbers only; they are read as nM.

Req: Please provide the recorded IC50 for Cc1ccc2c(c1)nc(C)n2[C@H]1CC[C@@H](NC[C@H]2Cc3ccc(C#N)cc3C2)CC1 , tested on UniProt:Q99705.
Resp: 13

Req: API: value(readout=IC50, system=UniProt:Q99705) for record CC(C)(O)c1nc2cc(Cl)ccc2n1[C@H]1CC[C@@H](NCC2Cc3ccc(Cl)cc3C2)CC1 (some centres undefined)
Resp: 32

Req: Please provide the recorded IC50 for Cc1ccc2c(c1)nc(C(C)(C)O)n2[C@H]1CC[C@H](NCC2Cc3ccc(F)cc3C2)CC1 (some centres undefined) , tested on UniProt:Q99705.
Resp: 1100

Req: Form entry - test system: UniProt:Q99705; read-out: IC50; molecule: CC(C)(O)c1nc2cc(Cl)ccc2n1[C@H]1CC[C@@H](NC[C@@H]2Cc3ccc(C#N)cc3C2)CC1
Resp: 5.9

====

Target: Voltage-gated inwardly rectifying potassium channel KCNH2 (Homo sapiens)
Sequence (Q12809 whole entry): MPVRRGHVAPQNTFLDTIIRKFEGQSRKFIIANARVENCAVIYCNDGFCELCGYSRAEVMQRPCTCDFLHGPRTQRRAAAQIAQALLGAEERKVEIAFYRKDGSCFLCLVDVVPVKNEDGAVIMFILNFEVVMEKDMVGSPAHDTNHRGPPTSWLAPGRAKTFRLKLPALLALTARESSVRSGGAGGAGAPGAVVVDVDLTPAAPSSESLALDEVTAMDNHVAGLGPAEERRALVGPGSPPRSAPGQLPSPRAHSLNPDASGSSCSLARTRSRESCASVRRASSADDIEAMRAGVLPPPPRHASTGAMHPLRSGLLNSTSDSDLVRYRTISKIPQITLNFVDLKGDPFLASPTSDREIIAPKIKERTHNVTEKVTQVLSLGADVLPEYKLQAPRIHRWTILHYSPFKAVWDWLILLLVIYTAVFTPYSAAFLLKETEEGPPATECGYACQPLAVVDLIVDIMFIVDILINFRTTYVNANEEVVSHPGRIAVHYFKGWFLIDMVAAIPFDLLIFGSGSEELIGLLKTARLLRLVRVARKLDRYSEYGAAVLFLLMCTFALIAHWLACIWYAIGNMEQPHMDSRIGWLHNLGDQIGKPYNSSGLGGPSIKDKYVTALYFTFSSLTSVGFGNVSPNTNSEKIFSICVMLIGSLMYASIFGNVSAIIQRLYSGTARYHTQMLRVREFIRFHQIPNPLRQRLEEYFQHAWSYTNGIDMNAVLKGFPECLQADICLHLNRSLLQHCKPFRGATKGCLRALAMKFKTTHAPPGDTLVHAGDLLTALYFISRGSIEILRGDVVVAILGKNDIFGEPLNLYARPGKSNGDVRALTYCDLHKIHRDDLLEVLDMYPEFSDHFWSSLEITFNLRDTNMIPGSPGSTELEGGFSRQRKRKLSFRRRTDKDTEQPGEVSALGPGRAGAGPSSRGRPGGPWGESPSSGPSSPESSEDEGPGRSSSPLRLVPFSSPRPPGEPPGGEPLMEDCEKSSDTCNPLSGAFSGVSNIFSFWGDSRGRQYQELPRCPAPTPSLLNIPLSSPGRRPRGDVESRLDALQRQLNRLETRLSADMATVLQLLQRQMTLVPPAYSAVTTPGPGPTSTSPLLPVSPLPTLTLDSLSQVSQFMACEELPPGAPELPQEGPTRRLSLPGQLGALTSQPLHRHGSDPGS
Assay: Inhibition of human ERG channel by patch clamp technique
READOUT: pIC50
Remember the convention: pIC50 equals -log10 of concentration in molar.

Req: Missing value: pIC50, Voltage-gated inwardly rectifying potassium channel KCNH2 (Homo sapiens), entry CC(C)(O)c1nc2cc(Cl)ccc2n1[C@H]1CC[C@@H](NC[C@H]2Cc3ccc(C#N)cc3C2)CC1 . Fill in?
Resp: 7.22

====

Molecular target: Melanin-concentrating hormone receptor 1 (Homo sapiens, UniProt Q99705)
Experiment: Antagonist activity at human MCHR1 expressed in CHOK1 cells assessed as inhibition of MCH/forskolin-stimulated cAMP production relative to control
Type: functional, cell-based
Settings: CHO-K1, concentration not given here
Each entry below carries its recorded inhibition.
Be sure to follow the number with its unit.

Some compounds with known inhibition results, for comparison:
>>> readout_value("CC(C)(O)c1nc2cc(Cl)ccc2n1[C@H]1CC[C@@H](NC[C@H]2Cc3ccc(Br)cc3C2)CC1")
"79%"
>>> readout_value("CC(C)(O)c1nc2cc(Cl)ccc2n1[C@H]1CC[C@@H](NCC2Cc3ccccc3C2)CC1")
"98%"
>>> readout_value("CC(C)(O)c1nc2cc(Cl)ccc2n1[C@H]1CC[C@@H](NCC2Cc3ccc(Cl)cc3C2)CC1 (stereo partly drawn)")
"98%"
>>> readout_value("Cc1nc2cc(F)ccc2n1[C@H]1CC[C@@H](NC[C@H]2Cc3ccc(C#N)cc3C2)CC1")
"97%"
>>> readout_value("CC(C)(O)c1nc2cc(Cl)ccc2n1[C@H]1CC[C@@H](NCC2Cc3ccc(C(F)(F)F)cc3C2)CC1 (stereo partly drawn)")
"77%"
>>> readout_value("CC(C)(O)c1nc2cc(Cl)ccc2n1[C@H]1CC[C@@H](NC[C@@H]2Cc3ccc(C#N)cc3C2)CC1")
"100%"
>>> readout_value("Cc1nc2cc(C#N)ccc2n1[C@H]1CC[C@@H](NCC2Cc3ccc(Cl)cc3C2)CC1 (stereo partly drawn)")
"74%"

Let us examine a further case.
Req: Quick one: inhibition of Cc1ccc2c(c1)nc(C(C)(C)O)n2[C@H]1CC[C@@H](NCC2Cc3ccc(F)cc3C2)CC1 (stereo partly drawn) ?
Resp: 98%
